Test system: HepG2
Test: GSK_TCMDC: Percent inhibition of human HepG2 cell line. Test compounds present at 10uM.
Type: functional
Define the label as y when Inhibition is strictly less than 7% and as n in all remaining cases.

Solved cases below.
compound | group
N#Cc1ccc(-n2cc(C(=O)Nc3ccc4c(c3)CCN(C3CCC3)CC4)c(C(F)(F)F)n2)cc1.O=C(O)C(F)(F)F | n
N#Cc1ccccc1S(=O)(=O)N1CCCC(CNC(=O)[C@H](CC2CCCCC2)NC(=O)c2cc3ccccc3s2)C1 (some centres not stated) | n
CC(C)c1cc(C(=O)N[C@@H](Cc2ccccc2)[C@H](O)CNC2CCCCC2)cc(N2CCCC2=O)c1 | y

Problem: Take the compound Cc1n[nH]c2ccc(-c3ccc4nccc(N5CCC(N)CC5)c4c3)cc12.Cl and say whether its Inhibition is less than 7%.
Result: n

Problem: Take the compound COc1ccc2nc3cc(Cl)ccc3c(Nc3ccc(C(=O)O)cc3)c2c1.Cl and say whether its Inhibition is less than 7%.
Result: y

Problem: Take the compound CS(=O)(=O)CCNC(=O)c1ccc(-c2cc3c(Nc4ccc5c(cnn5Cc5ccccc5)c4)ncnc3cn2)o1.Cl and say whether its Inhibition is less than 7%.
Result: y

Problem: Take the compound CN(C)CCCOc1c(C(C)(C)C)cc(-c2cc(C(C)(C)C)c(OCCCN(C)C)c(C(C)(C)C)c2)cc1C(C)(C)C and say whether its Inhibition is less than 7%.
Result: n
